Source listed as ChEMBL document CHEMBL1201862.

Tested on: HL-60
Experiment: NCI tumour cell line growth inhibition, 48 h
Active and inactive are the calls of the source. Rule as the data show it: active = GI50 up to about 1.1 µM and inactive = higher.

- compound: "N#Cc1ccc(C2ON=C(c3ccccc3)N2C23CC4CC(CC(C4)C2)C3)cc1 (configuration not stated)"
  GI50: "4.05 µM (inactive)"
- compound: "Cc1cccc(C2=NC(C)(C)C(C)(C)N=C2c2cccc(C)n2)n1"
  GI50: "53.6 µM (inactive)"
- compound: "O=S(=O)(O)c1cc(S(=O)(=O)O)c2c(/N=N/c3cccc4ccccc34)c(O)ccc2c1"
  GI50: "> 100 µM (inactive)"
- compound: "CN(C)c1ccc(/C=c2\\sc3nnc(Cc4ccccc4)n3c2=O)cc1"
  GI50: "> 10 µM (inactive)"
- compound: "CC(C)N(C(=O)c1cccc(C(=O)N(C(C)C)C(C)C)c1)C(C)C"
  GI50: "> 100 µM (inactive)"
- compound: "O=NC1c2cccc3cccc(c23)C1N=O (configuration not stated)"
  GI50: "2.5 µM (inactive)"
- compound: "COc1ccc(C(C#N)NC23CC4CC(CC(C4)C2)C3)cc1OC (configuration not stated)"
  GI50: "> 100 µM (inactive)"
